Data credit: patent US20250346616A1

Molecular target: Recombinant ROCK1 (Homo sapiens (Human), UniProt Q13464)
Sequence (Q13464 whole entry): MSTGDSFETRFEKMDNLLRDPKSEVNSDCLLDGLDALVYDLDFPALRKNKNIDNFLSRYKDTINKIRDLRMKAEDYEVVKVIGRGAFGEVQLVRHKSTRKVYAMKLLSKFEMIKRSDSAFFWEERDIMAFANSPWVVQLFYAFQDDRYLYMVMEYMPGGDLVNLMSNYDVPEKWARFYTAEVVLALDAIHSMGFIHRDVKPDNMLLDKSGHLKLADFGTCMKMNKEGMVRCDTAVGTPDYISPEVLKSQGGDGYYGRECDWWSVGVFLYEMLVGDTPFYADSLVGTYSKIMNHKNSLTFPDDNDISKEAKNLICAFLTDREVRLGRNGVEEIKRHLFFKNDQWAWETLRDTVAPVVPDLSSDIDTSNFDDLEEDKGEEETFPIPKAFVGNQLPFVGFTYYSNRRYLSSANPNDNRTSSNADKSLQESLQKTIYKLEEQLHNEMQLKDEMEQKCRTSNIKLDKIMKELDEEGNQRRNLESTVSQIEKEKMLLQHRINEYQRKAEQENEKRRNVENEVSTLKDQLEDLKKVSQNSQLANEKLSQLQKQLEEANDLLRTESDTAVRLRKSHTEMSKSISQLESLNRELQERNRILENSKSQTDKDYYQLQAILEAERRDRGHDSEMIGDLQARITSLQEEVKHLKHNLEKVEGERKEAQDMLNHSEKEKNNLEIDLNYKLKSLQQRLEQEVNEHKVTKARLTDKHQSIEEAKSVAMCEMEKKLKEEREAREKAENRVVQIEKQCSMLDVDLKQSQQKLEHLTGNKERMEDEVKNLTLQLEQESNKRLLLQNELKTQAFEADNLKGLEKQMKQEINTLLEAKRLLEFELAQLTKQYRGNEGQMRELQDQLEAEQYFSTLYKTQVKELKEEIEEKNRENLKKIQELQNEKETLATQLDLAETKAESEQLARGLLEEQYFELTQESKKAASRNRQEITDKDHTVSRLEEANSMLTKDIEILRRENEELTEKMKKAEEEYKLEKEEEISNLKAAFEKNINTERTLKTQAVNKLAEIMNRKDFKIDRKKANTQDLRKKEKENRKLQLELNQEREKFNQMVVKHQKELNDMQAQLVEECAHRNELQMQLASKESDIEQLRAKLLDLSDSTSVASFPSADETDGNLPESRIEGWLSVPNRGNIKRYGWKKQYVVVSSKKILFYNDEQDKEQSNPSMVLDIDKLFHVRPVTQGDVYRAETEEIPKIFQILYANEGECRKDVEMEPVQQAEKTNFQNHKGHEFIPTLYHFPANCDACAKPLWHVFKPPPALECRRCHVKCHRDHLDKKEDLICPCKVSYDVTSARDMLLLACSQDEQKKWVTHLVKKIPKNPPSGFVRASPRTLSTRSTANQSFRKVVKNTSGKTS
Test: Lance Ultra Kinase Assay, ROCK1 inhibition
Format: biochemical
Settings: ATP at Km, 30 min pre-incubation, 1 h reaction
Assay readout: IC50 (nM)
Answers are plain numbers, in nM.

CN1CCN(C(C(=O)Nc2cccc3c(-c4cn[nH]c4)c[nH]c23)c2ccccc2)CC1 (single isomer, unassigned) [Example 48]    1.6

Quick batch: IC50 for everything below.
1. COc1cccc([C@@H](N)C(=O)Nc2cccc3c(-c4cn[nH]c4)c[nH]c23)c1 [Example 42]
2. CNC(=O)OCc1cccc(C(CN)C(=O)Nc2cccc3c(-c4cn[nH]c4)c[nH]c23)c1 (single isomer, unassigned) [Example 51]
3. COc1cc(C(CN)C(=O)Nc2cccc3c(-c4cn[nH]c4)c[nH]c23)ccc1CO (racemic) [Example 101]
4. N#Cc1cccc([C@H](N)C(=O)Nc2cccc3c(-c4cn[nH]c4)c[nH]c23)c1 (single isomer, unassigned) [Example 69]
5. NCC(C(=O)Nc1cccc2c(-c3cn[nH]c3)c[nH]c12)c1ccc(C(=O)O)cc1 (racemic) [Example 71]
6. CNC(=O)OCc1cccc(C(CN)C(=O)Nc2cccc3c(-c4cn[nH]c4)c[nH]c23)c1 (single isomer, unassigned) [Example 50]
7. CN1CCC(C(NC(=O)c2cccc3c(-c4cn[nH]c4)c[nH]c23)C2CCCCC2)CC1 (racemic) [Example 143]

1: 0.18; 2: 33; 3: 1.6; 4: 21; 5: 227; 6: 0.32; 7: 397

Quick batch: IC50 for everything below.
1. CP(C)(=O)c1cccc(C(CN)NC(=O)c2cccc3c(-c4cn[nH]c4)c[nH]c23)c1 (racemic) [Example 151]
2. CN1CCN(CC(C(=O)Nc2cccc3c(-c4cn[nH]c4)c[nH]c23)c2cccnc2)CC1 (single isomer, unassigned) [Example 67]

1. 204
2. 2.6

----------
Field: IC50. Provide a value for each of the compounds that follow.
Biological target: Recombinant ROCK1 (Homo sapiens (Human), UniProt Q13464)
Experiment: Lance Ultra Kinase Assay, ROCK1 inhibition
Conditions: ATP at Km, 30 min pre-incubation, 1 h reaction
Answers are plain numbers, in µM.

CN1CCC(C(C(=O)Nc2cccc3c(-c4cn[nH]c4)c[nH]c23)c2ccccc2)CC1 (single isomer, unassigned) [Example 45]    0.00053
NCc1cccc(C(CN)C(=O)Nc2cccc3c(-c4cn[nH]c4)c[nH]c23)c1 (racemic)    0.014
NCC(NC(=O)c1cccc2c(-c3cn[nH]c3)c[nH]c12)c1ccccc1 (racemic)    0.0026

Quick batch: IC50 for everything below.
1. COc1cc(OC)cc(C(N)C(=O)Nc2cccc3c(-c4cn[nH]c4)c[nH]c23)c1 (racemic)
2. NCC(C(=O)Nc1cccc2c(-c3cn[nH]c3)c[nH]c12)c1ccccn1 (racemic)
3. COc1cccc(C(NC(=O)c2cccc3c(-c4cn[nH]c4)c[nH]c23)C2CCN(C)CC2)c1 (single isomer, unassigned) [Example 142]
4. CN1CCN(CC(C(=O)Nc2cccc3c(-c4cn[nH]c4)c[nH]c23)c2ccccc2)CC1 (single isomer, unassigned) [Example 39]
5. NCC(C(=O)Nc1cccc2c(-c3cn[nH]c3)c[nH]c12)c1cccc(N)c1 (racemic)
6. NCC(NC(=O)c1cccc2c(-c3cn[nH]c3)c[nH]c12)c1ccc(CO)cc1 (racemic)

1. 0.0073
2. 0.0092
3. 0.113
4. 0.175
5. 0.0018
6. 0.018

Quick batch: IC50 for everything below.
1. COc1cccc(C(CN)C(=O)Nc2cccc3c(-c4cn[nH]c4)c[nH]c23)c1 (racemic) [Example 16]
2. N[C@@H](Cc1c[nH]c2ccccc12)C(=O)Nc1cccc2c(-c3cn[nH]c3)c[nH]c12
3. COc1cccc(C(CN2CCN(C)CC2)NC(=O)c2cccc3c(-c4cn[nH]c4)c[nH]c23)c1 (single isomer, unassigned) [Example 138]
4. CN1CCN(CC(C(=O)Nc2cccc3c(-c4cn[nH]c4)c[nH]c23)c2cccnc2)CC1 (single isomer, unassigned) [Example 66]
5. CNC(=O)c1ccc(C(CN)C(=O)Nc2cccc3c(-c4cn[nH]c4)c[nH]c23)cc1 (racemic)

[0.00084, 0.015, 0.073, 0.604, 0.082]

Quick batch: IC50 for everything below.
1. COc1ccc(C(CN)C(=O)Nc2cccc3c(-c4cn[nH]c4)c[nH]c23)cc1 (racemic)
2. CC(=O)Nc1ccc(C(CN)C(=O)Nc2cccc3c(-c4cnn(C(=O)OC(C)(C)C)c4)c[nH]c23)cc1 (racemic)
3. NCC(C(=O)Nc1cccc2c(-c3cn[nH]c3)c[nH]c12)c1ccc(N)cc1 (racemic)
4. NCC(C(=O)Nc1cccc2c(-c3cn[nH]c3)c[nH]c12)C1CCCCC1 (racemic) [Example 22]
5. CP(C)(=O)c1ccc(C(CN)C(=O)Nc2cccc3c(-c4cn[nH]c4)c[nH]c23)cc1 (racemic)

1. 0.0053
2. 0.016
3. 0.00039
4. 0.0011
5. 0.122

----------
Field: pIC50. Provide a value for each of the compounds that follow.
Molecular target: Recombinant ROCK1 (Homo sapiens (Human))
Test: Lance Ultra Kinase Assay, ROCK1 inhibition
Details: ATP at Km, 30 min pre-incubation, 1 h reaction
Numbers only, as −log10 of the molar value.

Quick batch: pIC50 for everything below.
1. N#Cc1cccc(C(CN)C(=O)Nc2cccc3c(-c4cn[nH]c4)c[nH]c23)c1 (racemic) [Example 19]
2. NCC(C(=O)Nc1cccc2c(-c3cn[nH]c3)c[nH]c12)c1cccnc1 (single isomer, unassigned) [Example 32]
3. CN(C)C(=O)c1ccc(C(CN)C(=O)Nc2cccc3c(-c4cn[nH]c4)c[nH]c23)cc1 (racemic) [Example 72]
4. NCC(C(=O)Nc1cccc2c(-c3cn[nH]c3)c[nH]c12)C1CCOC1 (racemic) [Example 94]

[8.66, 9.26, 6.76, 8.19]

Quick batch: pIC50 for everything below.
1. N#Cc1ccc(C(CN)C(=O)Nc2cccc3c(-c4cn[nH]c4)c[nH]c23)cc1 (single isomer, unassigned) [Example 58]
2. NC[C@@H](C(=O)Nc1cccc2c(-c3c[nH]nc3F)c[nH]c12)c1ccccc1 [Example 57]

1. 6.87
2. 8.57

----------
Field: pIC50. Provide a value for each of the compounds that follow.
Target: Recombinant ROCK2 (Homo sapiens (Human))
Sequence (O75116 whole entry): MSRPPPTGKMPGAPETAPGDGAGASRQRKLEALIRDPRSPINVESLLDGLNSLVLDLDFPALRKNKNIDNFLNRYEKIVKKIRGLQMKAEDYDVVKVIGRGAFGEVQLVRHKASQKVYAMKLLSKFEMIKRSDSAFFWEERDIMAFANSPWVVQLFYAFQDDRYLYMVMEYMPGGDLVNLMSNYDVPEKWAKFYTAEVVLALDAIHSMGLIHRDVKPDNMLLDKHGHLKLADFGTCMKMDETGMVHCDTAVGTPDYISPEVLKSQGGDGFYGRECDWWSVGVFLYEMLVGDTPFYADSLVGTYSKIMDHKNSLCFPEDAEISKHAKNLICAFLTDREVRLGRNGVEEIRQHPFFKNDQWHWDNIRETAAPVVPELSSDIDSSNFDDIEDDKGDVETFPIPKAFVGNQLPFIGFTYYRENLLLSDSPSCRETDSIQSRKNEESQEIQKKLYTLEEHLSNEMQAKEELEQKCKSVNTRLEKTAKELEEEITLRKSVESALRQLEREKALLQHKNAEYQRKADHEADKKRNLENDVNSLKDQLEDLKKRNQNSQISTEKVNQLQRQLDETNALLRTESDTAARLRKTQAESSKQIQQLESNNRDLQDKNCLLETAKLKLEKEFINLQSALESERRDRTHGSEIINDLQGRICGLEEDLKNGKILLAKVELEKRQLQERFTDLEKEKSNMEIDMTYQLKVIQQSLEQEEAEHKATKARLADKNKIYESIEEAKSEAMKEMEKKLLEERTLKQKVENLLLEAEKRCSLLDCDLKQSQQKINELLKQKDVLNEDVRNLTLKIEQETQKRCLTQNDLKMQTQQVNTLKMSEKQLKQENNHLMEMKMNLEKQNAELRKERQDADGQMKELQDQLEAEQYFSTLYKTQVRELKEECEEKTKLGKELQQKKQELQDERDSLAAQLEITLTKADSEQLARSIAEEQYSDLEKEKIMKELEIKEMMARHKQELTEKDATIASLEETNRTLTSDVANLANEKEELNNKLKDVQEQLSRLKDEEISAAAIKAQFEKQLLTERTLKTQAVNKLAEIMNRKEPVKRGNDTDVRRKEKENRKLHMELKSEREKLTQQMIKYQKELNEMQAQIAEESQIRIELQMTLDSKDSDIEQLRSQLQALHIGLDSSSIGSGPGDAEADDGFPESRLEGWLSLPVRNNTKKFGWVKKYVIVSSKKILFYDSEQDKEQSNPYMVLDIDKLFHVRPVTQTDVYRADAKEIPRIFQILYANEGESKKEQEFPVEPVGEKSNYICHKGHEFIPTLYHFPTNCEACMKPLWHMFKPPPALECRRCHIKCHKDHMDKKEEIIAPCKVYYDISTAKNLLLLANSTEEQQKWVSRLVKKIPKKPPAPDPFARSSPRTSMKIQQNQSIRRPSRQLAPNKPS
Assay: Lance Ultra Kinase Assay, ROCK2 inhibition
Settings: ATP at Km, 30 min pre-incubation, 1 h reaction
Numbers only, as −log10 of the molar value.

NC(C(=O)Nc1cccc2c(-c3cn[nH]c3)c[nH]c12)C1CCCCC1 (racemic)    8.05
COCCOc1ccc(C(CN)C(=O)Nc2cccc3c(-c4cn[nH]c4)c[nH]c23)cc1 (racemic)    8.03

Turning now to a further record.
Field request: pIC50 | item: NCC(C(=O)Nc1cccc2c(-c3cn[nH]c3)c[nH]c12)c1ccc(CO)nc1 (single isomer, unassigned) [Example 61]
8.05
